tested on: Human immunodeficiency virus 1; experiment: Tested for antiviral activity against HIV-III B strain infected human lymphocyte derived CEM cells; format: functional, organism-based, CCRF-CEM; conditions: ccrf-cem
# reported EC50; entries follow
Respond with the bare value in µM.

compound | EC50 [µM]
Cc1cc(SC2=C(O)O[C@](CCc3ccc(O)cc3)(C(C)C)CC2=O)c(C(C)(C)C)cc1N (stereo in doubt; 15S) | 0.5

Please look at the following compound next.
Enter recorded EC50 with Human immunodeficiency virus 1 for Cc1cc(SC2=C(O)O[C@](CCc3ccc(O)cc3)(C(C)C)CC2=O)c(C(C)(C)C)cc1N (stereo in doubt; 15R) here.
91

The origin of these recorded values is ChEMBL document CHEMBL1132164.
